Molecular target: T1, human CD40L, membrane-bound on cells (human, UniProt P29965 1-261)
T1 sequence: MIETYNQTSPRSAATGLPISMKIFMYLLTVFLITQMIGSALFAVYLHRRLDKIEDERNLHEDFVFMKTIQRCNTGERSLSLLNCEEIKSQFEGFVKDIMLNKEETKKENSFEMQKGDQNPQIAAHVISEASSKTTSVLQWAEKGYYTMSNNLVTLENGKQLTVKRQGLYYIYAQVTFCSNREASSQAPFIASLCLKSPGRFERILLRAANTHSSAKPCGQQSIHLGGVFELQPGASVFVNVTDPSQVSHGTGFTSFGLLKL
Test: cell-based or functional assay
measured_endpoint: CHO-hCD40L-driven Human B Cell Proliferation EC50

Here is how some binders turned out for CHO-hCD40L-driven Human B Cell Proliferation EC50.
BMS2h-437-4 (other) VL: DIQMTQSPSSLSASVGDRVTITCRASTPIGTMLDWYQQKPGKAPKLLIGHSSWLQSGVPSRFSGCGSGTDFTLTISSLQPEDFATYYCGQHVRPPATFGQGTKVEIKR; > 7 µM
BMS2h-116-1319 (other) VL: DIQMTQSPSSLSASVGDRVTITCRASQPIGPDLLWYQQKPGKAPKLLIYQTSIMRSGVPSRFSGSGSETDFTLTISNLQPEDFATYYCQQYWTFPVTFGQGTKVEIKR; > 7 µM
BMS2h-572-604 (other) VH: EVQLLESGGGLVQPGGSLRLSCAASGFTFKWQLMGWVRQAPGKGLEWVSGIEGPGDVTYYADSVKGRFTISRDNSKNTLYLQMNSLRAEDTAVYYCVKVGKESNSDYRGQGTLVTVSS; > 0.7 µM

Now consider the entry below.
Q: Please supply the value of reported CHO-hCD40L-driven Human B Cell Proliferation EC50 for the item BMS2h-572-15 (other) VH: EVRLLESGGGLVQPGGSLRLSCAASGFNFNWQLMGWIRQAPGKGLEWVSGIEGPGDVTYYADSVKGRFTISRDNSKNTLYLQMNSLRAEDTAVYYCAKVGKESNSDYRGQGTLVTVSS
Ans: > 7 µM
